# target.entity: recombinant human MASP2 active protease (amino acids 297-686, C-terminal His Tag) (human, UniProt O00187 297-686)
# Sequence (O00187 other isoform, or with tags, fused parts or gaps limits assumed): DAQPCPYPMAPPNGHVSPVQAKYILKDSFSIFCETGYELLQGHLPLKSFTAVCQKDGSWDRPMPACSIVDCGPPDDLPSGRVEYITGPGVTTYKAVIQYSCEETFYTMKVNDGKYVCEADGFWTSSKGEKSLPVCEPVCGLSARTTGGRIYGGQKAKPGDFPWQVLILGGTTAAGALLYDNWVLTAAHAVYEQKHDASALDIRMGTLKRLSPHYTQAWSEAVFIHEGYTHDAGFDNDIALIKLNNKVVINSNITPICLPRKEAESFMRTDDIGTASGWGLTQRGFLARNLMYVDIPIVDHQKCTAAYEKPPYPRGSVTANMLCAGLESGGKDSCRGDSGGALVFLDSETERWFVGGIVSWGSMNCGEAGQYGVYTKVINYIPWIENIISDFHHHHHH
# experimental.protocol: cell-based or functional assay
Bridge positions count the residues as written; N and C are the ends. Square brackets hold non-standard residues; d marks the D form. Ends that are not written are not given here. Oic = O=C(O)[C@@H]1C[C@@H]2CCCC[C@@H]2N1; Pen = CC(C)(S)[C@H](N)C(=O)O; Abu = CC[C@H](N)C(=O)O; Sar = CNCC(=O)O
observation.type: human MASP2 IC50 (µM)
Form entry: value (µM) — number only.

binder	unit	obs.value
[Sar]ICSRSLPPICI[Abu]D-OH (disulfide 3-11; N-terminus assumed; SMILES CC[C@H](NC(=O)[C@@H](NC(=O)[C@@H]1CSSC[C@H](NC(=O)[C@@H](NC(=O)CNC)[C@@H](C)CC)C(=O)N[C@@H](CO)C(=O)N[C@@H](CCCNC(=N)N)C(=O)N[C@@H](CO)C(=O)N[C@@H](CC(C)C)C(=O)N2CCC[C@H]2C(=O)N2CCC[C@H]2C(=O)N[C@@H]([C@@H](C)CC)C(=O)N1)[C@@H](C)CC)C(=O)N[C@@H](CC(=O)O)C(=O)O) [Example 313: ((N-Me)G)-IC+SRSLPPIC+I-(Abu)-D-OH]	µM	0.25

Recorded result, [dF]ICSRSLP[Oic]I[Pen]IP-NH2 (disulfide 3-11; N-terminus assumed; SMILES CC[C@H](C)[C@H](NC(=O)[C@H](N)Cc1ccccc1)C(=O)N[C@H]1CSSC(C)(C)[C@@H](C(=O)N[C@H](C(=O)N2CCC[C@H]2C(N)=O)[C@@H](C)CC)NC(=O)[C@H]([C@@H](C)CC)NC(=O)[C@@H]2C[C@@H]3CCCC[C@@H]3N2C(=O)[C@@H]2CCCN2C(=O)[C@H](CC(C)C)NC(=O)[C@H](CO)NC(=O)[C@H](CCCNC(=N)N)NC(=O)[C@H](CO)NC1=O) [Example 370: fIC+SRSLP-(Oic)-I-(Pen)+IP-NH2] , human MASP2 IC50: 0.0935
